System: Huh-7 cells containing the self-replicating, subgenomic HCV replicon
Assay: HCV replicon assay (luciferase reporter)
Type: cell-based
Settings: Hepatitis C virus, Huh-7, 72 h
Description: Huh-7 cells containing the self-replicating, subgenomic HCV replicon with a stable luciferase (LUC) reporter were cultured in Dulbecco's modified Eagle's medium (DMEM) containing 2 mM L-glutamine and supplemented with 10% heat-inactivated fetal bovine serum (FBS), 1% penicillin-streptomyocin, 1% nonessential amino acids, and 0.5 mg/mL G418. On the first day, 5,000 HCV replicon cells were plated per well in a 96-well plate. […]
pEC50: −log10 of the molar value.
I'd appreciate it if you could supply pEC50 values for the items below.

{"columns": ["COMPOUND", "SYSTEM", "pEC50"],
 "data": [
  ["CC(C)OC(=O)[C@H](C)NP(=S)(OC[C@H]1O[C@@H](n2ccc(=O)[nH]c2=O)[C@](C)(OC(=O)C(C)C)[C@@H]1OC(=O)C(C)C)Oc1ccccc1 (stereo partly shown)", "Huh-7 cells containing the self-replicating, subgenomic HCV replicon", "> 6.00"]
]}

# batch size: 5; output pEC50 per entry
1. C[C@H](NP(=S)(OC[C@H]1O[C@@H](n2cnc3c(N)ncnc32)[C@](C)(O)[C@@H]1O)Oc1ccccc1)C(=O)OCC(C)(C)C (stereo partly shown)
2. COc1nc(N)nc2c1ncn2[C@@H]1O[C@H](COP(=S)(N[C@@H](C)C(=O)OC2CCCCC2)Oc2ccccc2)[C@@H](O)[C@@]1(C)O (stereo partly shown)
3. CC(C)OC(=O)[C@H](C)NP(=S)(OC[C@H]1O[C@@H](n2ccc(=O)[nH]c2=O)[C@](C)(O)[C@@H]1O)Oc1ccccc1Cl (stereo partly shown)
4. CC(C)OC(=O)[C@H](C)NP(=S)(OC[C@H]1O[C@@H](n2cnc3c(N)nc(N)nc32)[C@](C)(O)[C@@H]1O)Oc1ccccc1 (stereo partly shown)
5. CSCC[C@H](NP(=S)(OC[C@H]1O[C@@H](n2ccc(=O)[nH]c2=O)[C@](C)(O)[C@@H]1O)Oc1ccccc1)C(=O)OC(C)C (stereo partly shown)

Output line:
["> 6.00", "> 6.00", "> 6.00", "> 6.00", "5.00 to 6.00"]

Go through the items and report each one's pEC50.
1. CC(C)OC(=O)[C@H](C)N[P@](=S)(OC[C@H]1O[C@@H](n2ccc(=O)[nH]c2=O)[C@](C)(O)[C@@H]1O)Oc1ccccc1
2. COc1ccc(OP(=S)(N[C@@H](C)C(=O)OC(C)C)OC[C@H]2O[C@@H](n3ccc(=O)[nH]c3=O)[C@](C)(O)[C@@H]2O)cc1 (stereo partly shown)

Output line:
1: > 6.00; 2: > 6.00

Hi! Can you tell me pEC50 for each of these compounds?
1. COc1nc(N)nc2c1ncn2[C@@H]1O[C@H](COP(=S)(N[C@@H](C)C(=O)OC(C)C)Oc2ccccc2)[C@@H](O)[C@@]1(C)F (stereo partly shown)
2. Cc1ccccc1OP(=S)(N[C@@H](C)C(=O)OC(C)C)OC[C@H]1O[C@@H](n2ccc(=O)[nH]c2=O)[C@](C)(O)[C@@H]1O (stereo partly shown)

Output line:
["> 6.00", "> 6.00"]

Hi team, please reply with pEC50 for each item in this list.
1. CC(C)OC(=O)C(C)NP(=S)(OC[C@@]1(N=[N+]=[N-])O[C@@H](n2ccc(=O)[nH]c2=O)[C@H](O)[C@@H]1O)Oc1ccccc1 (stereo partly shown)
2. CC(C)OC(=O)[C@H](C)NP(=S)(OC[C@H]1O[C@@H](n2ccc(=O)[nH]c2=O)[C@](C)(O)[C@@H]1O)Oc1ccc(F)c(Cl)c1 (stereo partly shown)
3. COc1nc(N)nc2c1ncn2[C@@H]1O[C@H](COP(=S)(N[C@@H](C)C(=O)OC2CCCCC2)Oc2cccc3ccccc23)[C@@H](O)[C@@]1(C)O (stereo partly shown)

Output line:
["4.00 to 5.00", "> 6.00", "> 6.00"]

Sourced from patent US9278990B2
